Attribute: Inhibition
test: Inhibitory effect of ADP (10 uM) on PGE1 (2 uM)-induced increase in platelet cAMP levels at 1 uM concentration of compound; assay type: functional
Form entry: value (%) — number only.

The following compounds have reported results that may help.
- CCCCC#Cc1nc(N)c2ncn(C3O[C@H](COP(=O)(O)O)[C@@H](O)[C@H]3O)c2n1 (some centres undefined): 6.7
- Nc1nc(C#Cc2ccccc2)nc2c1ncn2C1O[C@H](COP(=O)(O)OP(=O)(O)O)[C@@H](O)[C@H]1O (some centres undefined): 1
- Nc1nc(C#Cc2ccccc2)nc2c1ncn2[C@@H]1O[C@H](COP(=O)(O)OP(=O)(O)OP(=O)(O)O)[C@@H](O)[C@H]1O: 1.6

Could you now consider this next compound?
Documented Inhibition of Nc1nc(C#Cc2ccccc2)nc2c1ncn2C1O[C@H](COP(=O)(O)O)[C@@H](O)[C@H]1O (some centres undefined) : 4.6

----------
test: Inhibitory effect of ADP (10 uM) on PGE1 (2 uM)-induced increase in platelet cAMP levels at 800 uM concentration of compound; format: functional
measurement-kind: Inhibition (%)
Form entry: value (%) — number only.

- Nc1nc(C#Cc2ccccc2)nc2c1ncn2C1O[C@H](COP(=O)(O)OP(=O)(O)O)[C@@H](O)[C@H]1O (some centres undefined): 29.5
- CCCCC#Cc1nc(N)c2ncn(C3O[C@H](COP(=O)(O)O)[C@@H](O)[C@H]3O)c2n1 (some centres undefined): 58.2
- Nc1nc(C#Cc2ccccc2)nc2c1ncn2[C@@H]1O[C@H](COP(=O)(O)OP(=O)(O)OP(=O)(O)O)[C@@H](O)[C@H]1O: 68.9

Could you now consider this next molecule?
Documented Inhibition of Nc1nc(C#Cc2ccccc2)nc2c1ncn2C1O[C@H](COP(=O)(O)O)[C@@H](O)[C@H]1O (some centres undefined) : 74.4
